The measurements presented in this section are drawn from patent US7629470B2.

assay: Solubility of chiral amide in IPA
Assay type: physicochemical
recorded_conditions: organic solvent or mixture; in IPA (isopropyl alcohol); grams of chiral amide per liter of solvent; concentration up to 45° C. under vacuum
measured_metric: solubility

-- ask What measured solubility goes with C[C@H](NC(=O)C(C)(C)Oc1ccc(C(F)(F)F)cn1)[C@@H](Cc1ccc(Cl)cc1)c1cccc(C(N)=O)c1 [chiral amide] ?
-- reply > 1350 mg/mL
